- measured-target: Tubulin (Homo sapiens) (UniProt P68371+Q9H4B7+P0DPH7+P68366+Q13509+Q71U36+P04350+Q3ZCM7+P07437+P68363+Q9BQE3+Q6PEY2+Q13885+Q9BVA1+Q9BUF5)
- assay-comment: Displacement of [3H]colchine from tubulin (unknown origin) at 5 uM after 10 mins
- Format: protein-complex assay
Values of inhibition greater than or equal to 90% map to satisfied; values below map to not satisfied.

{"compound": "COc1ccc2c(c1)C(=O)CCN2c1nc(C)nc2ccccc12", "category": "not satisfied"}
{"compound": "COc1ccc2c(c1)NC(=O)CN2c1nc(C)nc2ccccc12", "category": "satisfied"}
{"compound": "COc1ccc2c(c1)C(O)CCN2c1nc(C)nc2ccccc12 (stereo not given)", "category": "satisfied"}
{"compound": "COc1ccc2c(c1)N(C)C(=O)CN2c1nc(C)nc2ccccc12", "category": "satisfied"}

* * *

- Test system: Liver microsome
- assay-comment: Half life in human liver microsomes at 1 uM by LC-MS analysis
- Type: ADME

{"compound": "COc1ccc2c(c1)C(O)CCN2c1nc(C)nc2ccccc12 (stereo not given)", "t1/2 / min": 42.44}
{"compound": "COc1ccc2c(c1)CCCCN2c1nc(C)nc2ccccc12", "t1/2 / min": 24.85}
{"compound": "COc1ccc2c(c1)C(=O)CCN2c1nc(C)nc2ccccc12", "t1/2 / min": 20.89}
{"compound": "COc1ccc2c(c1)NC(=O)CN2c1nc(C)nc2ccccc12", "t1/2 / min": 54.81}
{"compound": "COc1ccc2c(c1)N(C)C(=O)CN2c1nc(C)nc2ccccc12", "t1/2 / min": 22}

* * *

- Test system: KB
- assay-comment: Cytotoxicity against human KB cells by SRB assay
- Type: functional
measurement-name: log10 GI50 (log10 of the value in nM)

{"chemical-smiles": "Cc1ccc2c(c1)CCCN2c1nc(Cl)nc2ccccc12", "measured-target": "KB", "log10 GI50": 1.68}
{"chemical-smiles": "COc1ccc2c(c1)NC(=O)CN2c1nc(C)nc2ccccc12", "measured-target": "KB", "log10 GI50": 0.36}
{"chemical-smiles": "Cc1nc(N2CCCc3cc(Br)ccc32)c2ccccc2n1", "measured-target": "KB", "log10 GI50": 2.25}
{"chemical-smiles": "Cc1ccc2c(c1)CCCN2c1nc(C)nc2ccccc12", "measured-target": "KB", "log10 GI50": 2.31}
{"chemical-smiles": "COc1ccc2c(c1)C(=O)CCN2c1nc(Cl)nc2ccccc12", "measured-target": "KB", "log10 GI50": 1.45}
{"chemical-smiles": "COc1ccc2c(c1)OCCN2c1nc(C)nc2ccccc12", "measured-target": "KB", "log10 GI50": 2.32}
{"chemical-smiles": "COc1ccc2c(c1)CCCN(c1nc(Cl)nc3ccccc13)C2", "measured-target": "KB", "log10 GI50": 4.05}
{"chemical-smiles": "COc1ccc2c(c1)CCN2c1nc(C)nc2ccccc12", "measured-target": "KB", "log10 GI50": 2.51}

* * *

- System: DU-145
- assay-comment: Cytotoxicity against human DU145 cells by SRB assay
- Assay type: functional
measurement-name: GI50

{"compound": "COc1ccc2c(c1)CCCN(c1nc(Cl)nc3ccccc13)C2", "result": "6810 nM"}
{"compound": "COc1ccc2c(c1)C(=O)CCN2c1nc(C)nc2ccccc12", "result": "21 nM"}
{"compound": "COc1ccc2c(c1)CCN2c1nc(Cl)nc2ccccc12", "result": "165 nM"}
{"compound": "COc1ccc2c(c1)OCCN2c1nc(Cl)nc2ccccc12", "result": "169 nM"}
{"compound": "COc1ccc2c(c1)NC(=O)CN2c1nc(C)nc2ccccc12", "result": "1.9 nM"}
{"compound": "COc1ccc2c(c1)CCCCN2c1nc(C)nc2ccccc12", "result": "18 nM"}
{"compound": "Cc1ccc2c(c1)CCCN2c1nc(Cl)nc2ccccc12", "result": "57 nM"}
{"compound": "COc1ccc2c(c1)OCCN2c1nc(C)nc2ccccc12", "result": "198 nM"}
{"compound": "Cc1nc(N2CCCc3cc(Br)ccc32)c2ccccc2n1", "result": "198 nM"}
{"compound": "COc1ccc2c(c1)CCCCN2c1nc(Cl)nc2ccccc12", "result": "165 nM"}
{"compound": "COc1ccc2c(c1)N(C)C(=O)CN2c1nc(C)nc2ccccc12", "result": "22 nM"}
{"compound": "COc1ccc2c(c1)CCCN(c1nc(C)nc3ccccc13)C2", "result": "14600 nM"}
{"compound": "Cc1ccc2c(c1)CCCN2c1nc(C)nc2ccccc12", "result": "187 nM"}
{"compound": "COc1ccc2c(c1)CCN2c1nc(C)nc2ccccc12", "result": "243 nM"}
{"compound": "COc1ccc2c(c1)C(=O)CCN2c1nc(Cl)nc2ccccc12", "result": "31 nM"}
{"compound": "CC(=O)O[C@H]1C(=O)[C@@]2(C)[C@H]([C@H](OC(=O)c3ccccc3)[C@]3(O)C[C@H](OC(=O)[C@H](O)[C@@H](NC(=O)c4ccccc4)c4ccccc4)C(C)=C1C3(C)C)[C@]1(OC(C)=O)CO[C@@H]1C[C@@H]2O [PACLITAXEL]", "result": "6 nM"}

From: ChEMBL document CHEMBL3124791
